Molecular target: T1, mouse ENTPD2 (Mus musculus, UniProt O55026)
T1 construct: residues 29-462 of mouse or rat ENTPD2 (the extracellular domain); mouse IgK signal peptide (N); His6; made in house; host or cells: FreeStyle 293-F cells, transient transfection
T1 sequence (O55026 29-462): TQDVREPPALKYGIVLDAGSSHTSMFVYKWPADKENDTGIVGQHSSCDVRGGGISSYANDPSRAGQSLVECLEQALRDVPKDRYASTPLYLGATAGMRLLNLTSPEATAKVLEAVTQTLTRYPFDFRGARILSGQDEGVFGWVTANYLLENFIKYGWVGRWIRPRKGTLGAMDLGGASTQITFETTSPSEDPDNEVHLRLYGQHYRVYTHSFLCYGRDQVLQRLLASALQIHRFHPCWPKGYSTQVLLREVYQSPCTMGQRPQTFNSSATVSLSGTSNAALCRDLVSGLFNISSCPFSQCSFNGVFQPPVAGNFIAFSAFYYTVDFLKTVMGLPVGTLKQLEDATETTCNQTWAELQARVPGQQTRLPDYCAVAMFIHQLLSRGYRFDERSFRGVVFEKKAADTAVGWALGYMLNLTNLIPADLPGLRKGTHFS
Assay: Antibody specificity: binding to mouse ENTPD2
Conditions: Mouse ENTPD2
Measure: BIACore KD

Fill blank: measured BIACore KD of the molecule mAb5: humanized anti-human ENTPD2 antibody from mAb16; VH SEQ ID NO: 46, VL SEQ ID NO: 64 (antibody, V domains shown) VH: QIQLQESGPGLVKPSQTLSLTCTVSGYSITSGYYWNWIRQHPGKGLEWIGYISYDADNNYNPSLKNRVTISRDTSKNQFSLKLSSVTAADTAVYYCAGGYYRYGLGSYRGSYYYVMDYWGQGTTVTVSS VL: ETVLTQSPATLSVSPGERATISCKASQSVDYDGNSYMNWYQQKPGQAPRLLIYAASNLESGIPARFSGSGSGTDFTLTISSVEPEDAATYYCQQSNEDPPTFGGGTKLEIK is ____.
No binding

Fill blank: measured BIACore KD of the molecule mAb2: humanized anti-human ENTPD2 antibody from mAb17; VH SEQ ID NO: 25, VL SEQ ID NO: 29 (antibody, V domains shown) VH: QVQLVQSGAEVVKPGASVKISCKASGYTFTDYNMDWVKQAPGQRLEWIGDINPKYDISTYNQQFKGKATITVDKSASTAYMELSSLRSEDTAVYYCARRGFFLYYGINYYYFDVWGQGTLVTVSS VL: EIVLTQSPATLSASPGERITLSCSASSSVSYIHWYQQKPGQAPRLLIYSTSNLASGIPARFSGSGSGTFYTLTISSVEPEDAAVYYCHQWSSYPWTFGGGTKLEIK is ____.
No binding
